test: inhibitors of the yeast RAM network, pilot screen, dse1pr::URA3 reporter, 5-FOA selection (AID 869);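 also: 0% = DMSO wells with no growth and 100% = 10 µM 1-NA-PP1 with full growth; RAM network block rescues cells from 5-FOA so hits raise OD615 growth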; details: S. cerevisiae dse1pr::URA3 5-FOA growth, OD615, 2 d; at 10 µM; stronger effect = higher value; strain carries analog-sensitive mutant Cbk1 kinase
Active and inactive are the calls of the source.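 The calls were made as follows: active = inhibition over a set limit, the all-compound mean plus 3 SD, in both replicate runs; inconclusive = over that limit in just one replicate run; inactive = at or under that limit in both runs.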
inhibition values by entry
experimental endpoint: inhibition

> print(dat)
                                    compound  experimental.endpoint              result
 1  Cc1cc(C(=O)N2CCN(C(c3ccccc3)c3ccccc3)CC2)on1             inhibition    2.04% (inactive)
 2        C=C(C)Cn1c(CCCNC(=O)CCC)nc2ccccc21             inhibition  -0.295% (inactive)
 3  CCOC(=O)C1CCCN(C(=O)c2ccccc2Oc2ccccc2)C1 (centres undefined)             inhibition   0.545% (inactive)
 4  O=C(C1CCN(S(=O)(=O)c2cccc3cccnc23)CC1)N1CCN(c2ccccc2)CC1             inhibition    1.76% (inactive)
 5  COc1ccc(OC)c(NC(=O)C(CC(C)C)NC(=O)C2CCCCC2)c1 (centres undefined)             inhibition    1.02% (inactive)
 6  COc1ccc2[nH]c(C)c(CN3CCC(C)CC3)c(=O)c2c1             inhibition    1.03% (inactive)
 7  COCCNC(=O)CS(=O)Cc1nc(-c2ccc(OC)cc2)oc1C (centres undefined)             inhibition    1.11% (inactive)
 8  O=C(O)CCC(=O)N1CCc2cc(S(=O)(=O)N3CCN(c4ccc(F)cc4)CC3)ccc21             inhibition    1.94% (inactive)
 9   CCOCCCNC(=O)c1cc2c(=O)n3cccc(C)c3nc2n1C             inhibition    2.11% (inactive)
10       O=C(CSc1nc2ccccc2[nH]1)Nc1ccc(F)cc1             inhibition   0.255% (inactive)
11  O=C(Nc1ccccc1)C1CC=CCC1C(=O)OCC1CCCO1 (centres undefined)             inhibition    2.69% (inactive)
12  COc1ccc(-c2cc3ccccc3n2CC(O)Cn2nc(C)cc2C)cc1 (centres undefined)             inhibition     0.2% (inactive)
13                 O=C1CCCc2sc3c(c2N1)CCCCC3             inhibition    1.12% (inactive)
14          COc1ccc(Cl)cc1S(=O)(=O)N1CCN=C1C             inhibition    0.03% (inactive)
15  CCCn1c(CNS(=O)(=O)c2ccc(C)cc2)nc2ccccc21             inhibition   0.135% (inactive)
16      COc1ccc(S(=O)(=O)Nc2cc(Cl)ccc2OC)cc1             inhibition    0.78% (inactive)
17  CCSc1nnc(NC(=O)CSc2nc3c(c(=O)n2CCOC)SC(C)C3)s1 (centres undefined)             inhibition    2.09% (inactive)
18                         CC(=O)Nc1nnc(C)s1             inhibition    1.29% (inactive)
19  CCOC(=O)C1Cc2ccccc2C(=O)O1 (centres undefined)             inhibition    0.47% (inactive)
20              O=C(CCc1ccccc1)N1CCN(CCO)CC1             inhibition   0.715% (inactive)
21             Fc1cc2nc(-c3ccncc3)[nH]c2cc1F             inhibition   0.625% (inactive)
22           COc1ccccc1C(=O)Nc1ccc2c(c1)OCO2             inhibition    2.47% (inactive)
23  O=C1C2CCCN2C(c2ccc(F)cc2)N1c1cccc(Cl)c1 (centres undefined)             inhibition    0.63% (inactive)
24  O=C(O)CC12CSc3[nH]c(=O)sc3C1c1ccccc1OC2=O (centres undefined)             inhibition    1.14% (inactive)
25     CCOC(=O)N1CCC(NC(=O)c2ccc3snnc3c2)CC1             inhibition    0.55% (inactive)
26  CC1CCCN(C(c2ccccc2)c2sc3ncnn3c2O)C1 (centres undefined)             inhibition    2.16% (inactive)
27  Cc1cc(C)cc(N(CC(=O)NCc2ccco2)S(=O)(=O)c2c(C)noc2C)c1             inhibition    2.42% (inactive)
28         C=C(C)Cn1c(CCNC(=O)CCC)nc2ccccc21             inhibition    1.54% (inactive)
29  CCOC(=O)CON1C(=O)C(C)(C)N(OCC(=O)OCC)C(=O)C1(C)C             inhibition    0.38% (inactive)
30  CCOC(=O)N1CCN(C(=O)C2CC(c3ccc(F)cc3)=NO2)CC1 (centres undefined)             inhibition   0.815% (inactive)
31  CC1CCC(NC(=O)c2cc3c(=O)n(C)c4ccccc4c3n2C)CC1 (centres undefined)             inhibition    2.25% (inactive)
32  Cc1cc(C)n2nc(CCc3nc4nc(C)cc(C)n4n3)nc2n1             inhibition    0.62% (inactive)
33  CCOC(=O)Cn1c(CN2CCOCC2)nc2c1c(=O)n(C)c(=O)n2C             inhibition    1.72% (inactive)
34    CCOC(=O)c1cnc2c(C#N)c(C)nn2c1-c1ccccc1             inhibition    1.69% (inactive)
35  CCOC(=O)N1CCN(C(=O)c2oc3ccc(S(=O)(=O)N4CCCCCC4)cc3c2C)CC1             inhibition  -0.805% (inactive)
36  COc1cc(C)c(C)cc1S(=O)(=O)N1CCN(Cc2ccccc2)CC1             inhibition   0.025% (inactive)
37  CCOC(=O)CNC(=O)c1cn(CC)c(=O)c2cc(OC)c(OC)cc12             inhibition    2.65% (inactive)
38           CC(=O)CCS(=O)(=O)c1ccc(C)c(C)c1             inhibition   0.885% (inactive)
39    CCc1nnc(NC(=O)CSc2nccn2-c2cccc(C)c2)s1             inhibition    0.64% (inactive)

====

growth inhibition values by entry
experiment: Restrictive medium S. cerevisiae growth inhibition, OD615, pilot screen of yeast lifespan reduction project, restrictive growth control (AID 706); conditions: OD615, 48 h, at 10 µM, stronger effect = higher value;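 also: modified DeaD lifespan yeast strain shifted to restrictive glucose medium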
The source made the active and inactive calls.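 The calls were made as follows: active = growth inhibition above a set limit, 3 SD over mean compound inhibition, in both replicates (cut at about 43% in these data); inconclusive = above the limit in only one replicate; inactive = at or below the limit in both replicates.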
experimental endpoint: growth inhibition

> print(dat)
                                    molecule             result
 1    COc1ccc(S(=O)(=O)NCCSc2ccc(C)cc2)cc1OC   1.66% (inactive)
 2  CC(=O)c1ccc(N2CCN(C(=O)c3ccc(NC(=O)C4CCCO4)cc3)CC2)cc1 (stereo not given)  -4.79% (inactive)
 3    Cc1cc(-c2ccco2)n(CC(=O)NCCCc2ccccc2)n1  -2.17% (inactive)
 4    CCc1nnc(NC(=O)CSc2nnc(Cc3cccn3C)n2C)s1   30.4% (inactive)
 5       CCc1cc(=O)oc2cc(OCC(=O)OC)c(Cl)cc12   1.34% (inactive)
 6                  CCCCOc1ccc(/C(N)=N/O)cc1  0.775% (inactive)
 7  CCOC(=O)N1CCN(C(=O)CN(c2cccc(C(F)(F)F)c2)S(C)(=O)=O)CC1  -1.87% (inactive)
 8  Cc1ccc2c(c1)C(c1ccc(F)cc1)N(C(=O)C1CC1)CC(=O)N2 (stereo not given)  -4.04% (inactive)
 9  CCn1cc(C(=O)NCCCN2CCC(C)CC2)c2cc(OC)c(OC)cc2c1=O    6.7% (inactive)
10  CCOC(=O)c1ccc(NC(=O)CSc2nnc(Cn3c(=O)sc4ccccc43)n2C)cc1     12% (inactive)
11             O=C(CSc1nc2ccccc2o1)NCc1ccco1    -16% (inactive)
12  Cc1cccc(NC(=O)NCCN2C(=O)C3C4C=CC(C4)C3C2=O)c1 (stereo not given)   8.84% (inactive)
13  Cc1ccc(CC2S/C(=C(/C#N)C(=O)NCc3ccco3)N(c3ccccc3)C2=O)cc1 (stereo not given)   2.41% (inactive)
14  CCCCS(=O)CC(CS(=O)CCCC)OC(=O)c1ccc(C)cc1 (stereo not given)   -7.7% (inactive)
15  CC1CCN(C(=O)CSc2nc(N)c3c4c(sc3n2)CN(C)CC4)CC1   12.6% (inactive)

====

growth inhibition values by entry
experiment: Restrictive medium S. cerevisiae growth inhibition, OD615, pilot screen of yeast lifespan reduction project, restrictive growth control (AID 706); conditions: OD615, 48 h, at 10 µM, stronger effect = higher value;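 also: modified DeaD lifespan yeast strain shifted to restrictive glucose medium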
experimental endpoint: growth inhibition (%)

> print(dat)
                                    compound  result.number
 1                         CC(=O)Nc1nnc(C)s1          -8.07
 2      COc1ccc(NC(=O)c2oc3ccccc3c2C)c(OC)c1          -1.27
 3  COC(=O)C1CCN(C(c2ccc(OC)c(OC)c2)c2sc3nc(C)nn3c2O)CC1 (stereo unspecified)            4.6
 4  COc1ccc(-n2c(Cc3cccn3C)nnc2SCC(=O)NC2CCCC2)cc1           5.99
 5  O=C(CSc1nc2c(c(=O)n1-c1ccc(Cl)cc1)SCC2)N1CCOCC1           -2.5
 6  Cn1c(=O)oc2cc(S(=O)(=O)N3CCC(C(=O)N4CC=C(c5ccccc5)CC4)CC3)ccc21           4.63
 7                       O=c1cc(O)sc2ccccc12          -8.78
 8              O=C(Nc1cnc2ccccc2c1)c1ccncc1          -8.73
 9         CCCOC(=O)c1cccc(NC(=O)C(C)(C)C)c1          -14.3
10  Cc1c(N=C2C(=O)Nc3ccccc32)c(=O)n(-c2ccccc2)n1C          0.225
11   Cc1ccc(NC(=O)c2cc(-c3cccc(O)c3)on2)cc1C          -5.78
